yeast fitness listing for selected variants.
B1: tRNA (parent)
chain: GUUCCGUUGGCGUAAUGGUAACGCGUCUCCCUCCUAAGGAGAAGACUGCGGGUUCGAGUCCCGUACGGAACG

variants of: B1; test: yeast fitness relative to wild type (ratio to wild type); higher = fitter; tRNA-Arg(CCU), competitive growth, 37 C, YPD
Variants at the floor of the assay were thinned out.

| mutations | yeast fitness |
| --- | --- |
| G12A C24A C34A C49A G63U G67A | ≤ 0.5 |
| A20G C60A C61G | ≤ 0.5 |
| A21C U47C A65C | ≤ 0.5 |
| C33U A37C G67U A69U | ≤ 0.5 |
| C4G G6A C24U A40U C49A | ≤ 0.5 |
| C5G C30U U32A C49G | ≤ 0.5 |
| C11G G25A A36U | 0.615 |
| C4G G17C C33G U59C | ≤ 0.5 |
| C46A U59G | 1.06 |
| U3C C4G A15U C33A G52C | ≤ 0.5 |
| A43U G48A C61G | ≤ 0.5 |
| U2A C55U | 0.661 |
| C24A A45G G50A | ≤ 0.5 |
| C27G A37U | 0.591 |
